meta.source: ChEMBL document CHEMBL1201862

- Test system: SF-539
- MEASUREMENT_DESCRIPTION: NCI tumour cell line growth inhibition, 48 h
Active and inactive are the calls of the source. No stated cut-off is given here; in the data, active = GI50 up to about 1.1 µM and inactive = higher.
ENDPOINT_NAME: GI50

Solved cases (5 shown):
CCCCCCc1cc2cc(C(=O)Nc3ccccc3)c(=N)oc2cc1O : 4.49 µM (inactive)
C=C1C(=O)O[C@@H]2/C=C(/C)[C@@H](OC(C)=O)C/C=C(\C)C(O)[C@@H](OC(=O)/C(C)=C\C)C12 (some centres not stated) : 34.4 µM (inactive)
CCn1c(-c2ccc(OC(C)=O)cc2)c(C)c2cc(OC(C)=O)ccc21 : 15.8 µM (inactive)
COc1cccc(C=O)c1[O-].COc1cccc(C=O)c1[O-].[Zn+2] : 45.2 µM (inactive)
OCC(S)CS.[Bi] (configuration not stated) : 15.4 µM (inactive)

Fill blank: measured GI50 of the molecule Cc1cc(N(CCC#N)CCC#N)ccc1/C=C1N=C(/C=C\c2ccccc2)N(c2ccc(Cl)cc2)C\1=O is ____.
6.71 µM (inactive)

For the molecule CCc1ccccc1-n1c2nc(=O)n(C)c(=O)c-2nc2ccccc21 , what GI50 is on record?
14.1 µM (inactive)

// GI50 lookup, key: O=c1oc2c(O)c(O)c(O)c3c(=O)oc4c(O)c(O)cc1c4c23
> 100 µM (inactive)

Look up GI50 for this molecule: COc1cc(/C=C/C=C2\CCC/C(=C\C=C\c3ccc(O)c(OC)c3)C2=O)ccc1O
17.5 µM (inactive)

* * *

- System: Malme-3M
- MEASUREMENT_DESCRIPTION: NCI tumour cell line growth inhibition, 48 h
Calls of active or inactive are those of the source. No stated cut-off is given here; in the data, active = GI50 up to about 1.1 µM and inactive = higher.
ENDPOINT_NAME: GI50

Here are 3 molecules together with their reported answers.
COc1ccc(Nc2cnc3cc(N)ccc3n2)cc1OC : > 100 µM (inactive)
C1CCN(CCC2CCCCN2)CC1 (configuration not stated) : > 100 µM (inactive)
Cc1cc(N(CCC#N)CCC#N)ccc1/C=C1N=C(/C=C\c2ccccc2)N(c2ccc(Cl)cc2)C\1=O : 17.7 µM (inactive)

Param item = CC1CCC2C(C)(C)CC3(C)CCC1C23O (configuration not stated) ; retrieve measured GI50.
13.3 µM (inactive)

Consider the molecule C#CCNC(=O)NC(CCCNC(=O)OCc1ccccc1)C(=O)OCc1ccccc1 (configuration not stated) and give its measured GI50.
51.9 µM (inactive)

What GI50 value was documented for this molecule, CC(C)=C[C@H]1C[C@H](C)[C@H]2CC[C@H](C)c3c2c1c(C)c1ncoc31 ?
13.5 µM (inactive)

Can you look up the measured GI50 of COc1ccc(-c2cc(N3CCN(c4ccccc4)CC3)c(C#N)c(=O)o2)cc1 for me?
19.4 µM (inactive)

Please report the recorded GI50 for O=C1CCCC/C1=C/C=C/c1ccccc1 .
87.9 µM (inactive)

Give its GI50 value. Item: O=C(Cc1ccccc1)NNc1nc(NNC(=O)c2ccncc2)nc(Nc2ccc(Cl)cc2)n1
> 10 µM (inactive)

Given the molecule c1ccc(COc2cccc3ccc[n+](Cc4ccccc4)c23)cc1 , what is its reported GI50?
4.23 µM (inactive)

Suppose we examine the molecule CCC(=O)OCc1ccc2oc(=O)c(C(=O)Oc3cncc(Cl)c3)cc2c1 ; what GI50 value has been reported?
66.7 µM (inactive)

Consider the molecule shown here: O=C1/C(=N\n2c(S)nnc2-c2ccncc2)c2cc(Cl)ccc2N1CN1CCCCC1 What is its recorded GI50?
> 100 µM (inactive)
